B1: tRNA (parent)
chain: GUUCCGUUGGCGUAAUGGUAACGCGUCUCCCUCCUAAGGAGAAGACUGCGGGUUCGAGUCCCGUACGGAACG

- Variants of: B1
- Test Description: yeast fitness relative to wild type (ratio to wild type); higher = fitter; tRNA-Arg(CCU), competitive growth, 37 C, YPD
This sample holds only a part of the variants without activity.
Answer each item with its documented yeast fitness.
When you answer, write just the number.

Query string: Any idea what its yeast fitness is? The variant is GGUCCGUUGGCGUAAUGGUAACGCGUCUCCCUCCUACGGAAAAGACUGUGGGUUCGAGUGCCGUACGGAACG [U2G A37C G41A C49U C60G]
Result string: 0.51

Query string: Any idea what its yeast fitness is? The variant is GUUCAGUUGGCGUAAUGGUAACGCGUCUCCCUCCUAAGGAGAAGACUGCGGGUCCGAGUCUUGUACGGUACG [C5A U54C C61U C62U A69U]
Result string: 0.546

Query string: Any idea what its yeast fitness is? The variant is GUUCCGUUGGCGUAAUGGUAACGCGUCUCCCUCUUAAGGAGAAGACUGCGGGUUCAAGUCCCGUACGGAACG [C34U G56A]
Result string: 0.798

Query string: Any idea what its yeast fitness is? The variant is GUUCCGUUGGCGUAAUGGUAACGCGUCUCCCUCCUAAGCAGAAGACUGCGGGUUCGAGACCCGUACGGAACG [G39C U59A]
Result string: 0.779

Query string: Any idea what its yeast fitness is? The variant is GUUCGAUUGGCGUAAUGGUAACGCGCCUCCCUCCUAAGGAGAAGACUGCGGAUUCGAGUCCCGUACGGAACG [C5G G6A U26C G52A]
Result string: 0.619

Query string: Any idea what its yeast fitness is? The variant is GUUCCGUUGGCGUAGUGGGAACGCGUCUCCCUCCUAAGGAGGAGACUGCGGGUUCGAGUCCCGUACGGAACG [A15G U19G A42G]
Result string: 0.702
